Cited source: patent EP4682145A1

TESTED_TARGET: human FFAR1 (GPR40) (Homo sapiens)
Construct: Flag
Sequence (O14842 whole entry): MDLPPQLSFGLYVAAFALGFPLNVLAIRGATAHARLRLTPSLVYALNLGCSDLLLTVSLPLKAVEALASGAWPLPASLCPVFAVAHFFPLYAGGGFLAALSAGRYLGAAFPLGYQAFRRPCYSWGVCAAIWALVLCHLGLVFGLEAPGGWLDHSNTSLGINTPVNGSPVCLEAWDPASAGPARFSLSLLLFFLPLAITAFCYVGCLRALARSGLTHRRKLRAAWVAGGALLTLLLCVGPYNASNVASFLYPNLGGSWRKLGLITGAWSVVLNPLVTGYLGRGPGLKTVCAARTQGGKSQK
ASSAY_PROTOCOL: NFAT-RE-based reporter gene activity assay (Dual-Glo luciferase) for GPR40 agonistic activity in co-transfected HEK293T cells
MEASUREMENT_CONDITIONS: 4-hour treatment
pEC50: −log10 of the molar value.
Catalogue of pEC50 values

COc1cccc(N2CCC(c3oc4cc(C(CC(=O)O)C5CC5)ccc4c3C(=O)Nc3cccc(OC)c3F)CC2)c1 (stereo not shown) [Compound 258]
6.30 to 7.00
CC(C)(C)c1cccc(-c2c(C3CCN(c4ccccc4F)CC3)oc3cc(C(CC(=O)O)C4CC4)ccc23)c1 (stereo not shown) [Compound 9]
6.30 to 7.00
COc1cccc(N2CCC(c3oc4cc(C(CC(=O)O)C5CC5)ccc4c3-c3cccc(NC(=O)CC(C)(C)C)n3)CC2)c1 (stereo not shown) [Compound 149]
6.30 to 7.00
COc1cccc(N2CCC(c3oc4cc([C@@H](CC(=O)O)C5CC5)ccc4c3C(=O)Nc3ccccc3F)CC2)c1 [Compound 234]
≥ 8.00
COc1ccccc1C(C)N1CCC(c2oc3cc(C(CC(=O)O)C4CC4)ccc3c2C(=O)Nc2ccccc2F)CC1 (stereo not shown) [Compound 328]
< 6.30
CCC(OCC(C)(C)C)c1c(C2CCN(c3cccc(OC)c3)CC2)oc2cc([C@@H](CC(=O)O)C3CC3)ccc12 (stereo partly shown) [Compound 416]
7.00 to 8.00

Moving on to another compound below.
Qu. Query the reported pEC50 for human FFAR1 (GPR40) (Homo sapiens); item: COc1cccc(N2CCC(c3oc4cc([C@@H](CC(=O)O)C5CC5)ccc4c3C(=O)Nc3ccccc3OC(F)(F)F)CC2)c1 [Compound 240]
Ans. 6.30 to 7.00
